Data credit: ChEMBL document CHEMBL3870316

Biological target: Receptor-type tyrosine-protein kinase FLT3 (Homo sapiens, UniProt P36888)
Sequence (P36888 whole entry): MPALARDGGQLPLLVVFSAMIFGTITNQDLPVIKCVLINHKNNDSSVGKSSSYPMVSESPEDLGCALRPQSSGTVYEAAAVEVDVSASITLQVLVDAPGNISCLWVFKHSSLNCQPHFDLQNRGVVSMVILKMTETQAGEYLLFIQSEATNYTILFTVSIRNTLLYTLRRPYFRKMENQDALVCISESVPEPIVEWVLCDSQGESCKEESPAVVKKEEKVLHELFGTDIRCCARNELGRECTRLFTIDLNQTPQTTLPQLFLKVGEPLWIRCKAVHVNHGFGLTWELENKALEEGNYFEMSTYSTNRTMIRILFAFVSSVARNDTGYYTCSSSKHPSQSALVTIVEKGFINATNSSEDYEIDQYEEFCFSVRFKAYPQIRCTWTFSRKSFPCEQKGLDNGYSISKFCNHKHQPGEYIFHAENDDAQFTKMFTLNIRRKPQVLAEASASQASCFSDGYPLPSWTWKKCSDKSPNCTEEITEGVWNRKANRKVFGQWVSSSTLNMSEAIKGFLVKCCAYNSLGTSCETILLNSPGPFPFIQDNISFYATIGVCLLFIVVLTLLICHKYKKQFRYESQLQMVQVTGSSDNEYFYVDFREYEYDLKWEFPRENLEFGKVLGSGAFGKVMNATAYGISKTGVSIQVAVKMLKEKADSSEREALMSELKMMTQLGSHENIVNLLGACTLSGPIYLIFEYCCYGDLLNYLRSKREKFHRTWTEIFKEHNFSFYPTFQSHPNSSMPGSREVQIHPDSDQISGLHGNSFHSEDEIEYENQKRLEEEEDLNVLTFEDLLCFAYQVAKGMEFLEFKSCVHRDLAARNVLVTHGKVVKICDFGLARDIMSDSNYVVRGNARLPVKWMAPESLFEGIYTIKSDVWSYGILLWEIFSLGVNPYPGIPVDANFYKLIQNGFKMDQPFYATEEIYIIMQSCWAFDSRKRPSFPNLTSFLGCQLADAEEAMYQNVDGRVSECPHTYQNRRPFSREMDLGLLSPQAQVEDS
pIC50: −log10 of the molar value.
attribute measured: pIC50

smiles input	attribute measured	experimental value
COc1cc2c(Oc3ccc(NC(=O)c4nn(-c5ccccc5F)c(=O)n4C)cc3F)ccnc2cc1OCCCN1CCN(C)CC1	pIC50	8.09

----------
Molecular target: Vascular endothelial growth factor receptor 2 (Homo sapiens)
Sequence (P35968 whole entry): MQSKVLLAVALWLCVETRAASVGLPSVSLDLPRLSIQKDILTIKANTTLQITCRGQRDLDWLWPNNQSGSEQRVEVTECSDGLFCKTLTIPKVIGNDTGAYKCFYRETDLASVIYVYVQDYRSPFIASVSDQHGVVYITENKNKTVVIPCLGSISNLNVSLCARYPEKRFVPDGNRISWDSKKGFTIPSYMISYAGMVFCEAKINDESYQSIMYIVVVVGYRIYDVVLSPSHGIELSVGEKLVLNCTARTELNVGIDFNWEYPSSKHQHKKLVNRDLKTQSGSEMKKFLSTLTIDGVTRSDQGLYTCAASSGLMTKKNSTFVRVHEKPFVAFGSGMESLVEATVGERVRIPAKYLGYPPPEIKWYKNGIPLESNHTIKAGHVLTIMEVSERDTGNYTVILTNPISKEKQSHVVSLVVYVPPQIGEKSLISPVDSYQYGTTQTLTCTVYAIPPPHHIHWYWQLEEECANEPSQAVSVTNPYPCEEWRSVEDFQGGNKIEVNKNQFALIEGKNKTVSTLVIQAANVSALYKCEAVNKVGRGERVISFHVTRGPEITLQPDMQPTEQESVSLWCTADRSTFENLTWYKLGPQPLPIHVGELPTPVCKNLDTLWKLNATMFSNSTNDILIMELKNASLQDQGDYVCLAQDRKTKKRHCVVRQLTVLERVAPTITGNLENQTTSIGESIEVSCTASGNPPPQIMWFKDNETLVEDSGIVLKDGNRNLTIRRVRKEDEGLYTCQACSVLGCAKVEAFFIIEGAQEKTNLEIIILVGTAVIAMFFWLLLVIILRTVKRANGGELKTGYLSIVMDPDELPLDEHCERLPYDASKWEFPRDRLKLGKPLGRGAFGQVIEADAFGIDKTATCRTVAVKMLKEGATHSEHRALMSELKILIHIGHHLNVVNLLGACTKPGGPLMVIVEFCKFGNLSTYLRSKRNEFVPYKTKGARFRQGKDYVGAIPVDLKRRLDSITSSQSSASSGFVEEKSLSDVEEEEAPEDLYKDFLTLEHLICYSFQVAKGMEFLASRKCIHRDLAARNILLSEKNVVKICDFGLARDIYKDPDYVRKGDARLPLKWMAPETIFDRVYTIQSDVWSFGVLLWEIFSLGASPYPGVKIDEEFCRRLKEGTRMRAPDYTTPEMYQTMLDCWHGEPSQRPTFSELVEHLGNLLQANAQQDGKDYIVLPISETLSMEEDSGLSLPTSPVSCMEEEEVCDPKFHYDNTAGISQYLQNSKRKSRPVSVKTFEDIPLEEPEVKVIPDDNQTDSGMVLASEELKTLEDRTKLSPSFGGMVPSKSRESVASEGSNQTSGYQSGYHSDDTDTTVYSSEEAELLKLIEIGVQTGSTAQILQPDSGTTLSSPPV
pIC50: −log10 of the molar value.

smiles input	pIC50
COc1cc2c(Oc3ccc(NC(=O)c4nn(-c5ccccc5F)c(=O)n4C)cc3F)ccnc2cc1OCCCN1CCN(C)CC1	6.32

----------
# pIC50 listing for each entry below
Assay: Cytotoxicity against c-Met over-expressed human MKN45 cells assessed as cell growth inhibition after 72 hrs by MTT assay
Conditions: MKN-45, 72 h
pIC50: −log10 of the molar value.
attribute measured: pIC50

smiles input	experimental value
COc1cc2c(Oc3ccc(NC(=O)c4nn(-c5ccccc5OC(F)(F)F)c(=O)n4C)cc3F)ccnc2cc1OCCCN1CCN(C)CC1	7.70
COc1cc2c(Oc3ccc(NC(=O)c4nn(-c5cccc(F)c5)c(=O)n4C)cc3F)ccnc2cc1OCCCN1CCN(C)CC1	6.39
COc1cc2c(Oc3ccc(NC(=O)c4nn(-c5c(C)cccc5C)c(=O)n4C)cc3F)ccnc2cc1OCCCN1CCCCC1	5.73
COc1cc2c(Oc3ccc(NC(=O)c4nn(-c5ccc(OC(F)F)cc5)c(=O)n4C)cc3F)ccnc2cc1OCCCN1CCC(C)CC1	6.66
COc1cc2c(Oc3ccc(NC(=O)c4nn(-c5ccccc5F)c(=O)n4C)cc3F)ccnc2cc1OCCCN1CCN(C)CC1	7.52
COc1ccc(-n2nc(C(=O)Nc3ccc(Oc4ccnc5cc(OCCCN6CCCCC6)c(OC)cc45)c(F)c3)n(C)c2=O)cc1	6.06
COc1cc2c(Oc3ccc(NC(=O)c4nn(-c5ccc(F)cc5)c(=O)n4C)cc3F)ccnc2cc1OCCCN1CCN(C)CC1	6.46
COc1cc2c(Oc3ccc(NC(=O)c4nn(-c5ccc(F)cc5)c(=O)n4C)cc3F)ccnc2cc1OCCCN1CCC(C)CC1	6.51
COc1cc2c(Oc3ccc(NC(=O)c4nn(-c5ccc(Cl)cc5Cl)c(=O)n4C)cc3F)ccnc2cc1OCCCN1CCCCC1	6.54
COc1cc2c(Oc3ccc(NC(=O)c4nn(-c5ccc(F)cc5)c(=O)n4C)cc3F)ccnc2cc1OCCCN1CCCC1	6.12
COc1cc2c(Oc3ccc(NC(=O)c4nn(-c5ccc(Cl)cc5Cl)c(=O)n4C)cc3F)ccnc2cc1OCCCN1CCC(C)CC1	6.40
CCn1c(C(=O)Nc2ccc(Oc3ccnc4cc(OCCCN5CCCCC5)c(OC)cc34)c(F)c2)nn(-c2ccccc2OC(F)(F)F)c1=O	6.92
COc1cc2c(Oc3ccc(NC(=O)c4nn(-c5ccccc5Cl)c(=O)n4C)cc3F)ccnc2cc1OCCCN1CCC(C)CC1	6.46
COc1cc2c(Oc3ccc(NC(=O)c4nn(-c5ccccc5F)c(=O)n4C)cc3F)ccnc2cc1OCCCN1CCCCC1	7.15
COc1cc2c(Oc3ccc(NC(=O)c4nn(-c5ccccc5Cl)c(=O)n4C4CC4)cc3F)ccnc2cc1OCCCN1CCC(C)CC1	6.96
COc1cc2c(Oc3ccc(NC(=O)c4nn(-c5ccc(F)cc5)c(=O)n4C)cc3F)ccnc2cc1OCCCN1CCOCC1	6.19
COc1cc2c(Oc3ccc(NC(=O)c4nn(-c5ccccc5)c(=O)n4C)cc3F)ccnc2cc1OCCCN1CCN(C)CC1	6.25
COc1cc2c(Oc3ccc(NC(=O)c4nn(-c5cccc(F)c5)c(=O)n4C)cc3F)ccnc2cc1OCCCN1CCCCC1	6.48
COc1cc2c(Oc3ccc(NC(=O)c4nn(-c5ccccc5Cl)c(=O)n4C)cc3F)ccnc2cc1OCCCN1CCCCC1	6.66
